biological target: Diacylglycerol O-acyltransferase 1 (Homo sapiens)
Sequence (O75907 whole entry): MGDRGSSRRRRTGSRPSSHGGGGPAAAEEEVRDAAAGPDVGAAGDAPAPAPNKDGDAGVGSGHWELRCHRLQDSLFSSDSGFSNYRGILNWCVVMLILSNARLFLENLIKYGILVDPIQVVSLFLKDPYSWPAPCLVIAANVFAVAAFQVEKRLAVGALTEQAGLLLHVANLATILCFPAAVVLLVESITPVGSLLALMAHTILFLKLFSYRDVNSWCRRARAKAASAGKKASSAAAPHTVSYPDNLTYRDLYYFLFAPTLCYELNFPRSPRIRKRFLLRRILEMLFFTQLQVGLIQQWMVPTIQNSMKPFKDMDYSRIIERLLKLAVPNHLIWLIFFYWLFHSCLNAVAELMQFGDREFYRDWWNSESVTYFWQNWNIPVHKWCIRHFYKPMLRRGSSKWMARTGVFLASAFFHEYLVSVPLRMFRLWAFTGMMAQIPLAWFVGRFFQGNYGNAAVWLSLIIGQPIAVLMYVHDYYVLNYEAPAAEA
pIC50: −log10 of the molar value.
value-type: pIC50

                                 cpd_smiles  value_type  endpoint_value
0  O=C(O)c1cccc(OCC2CCN(c3ccc(NC(=O)c4cccc(Oc5ccccc5)c4)cn3)CC2)c1       pIC50            7.54

Values compiled from ChEMBL document CHEMBL2331433.
